Cited source for all entries: paper PMC9005681

- system: cloned human or rodent CNS receptors, channels, and transporters (PDSP panel) (Homo sapiens)
- Construct: expressed in transfected cells
- test.method.notes: PDSP GPCR panel primary binding assays at 10 μM
- measurement.context: Receptor Alpha1D; primary assay, 10 μM
reported.property: Inhibition 3

Request: Need Inhibition 3, item Cl.NC(=O)c1cnc(N[C@@H]2CCCC[C@@H]2N)nc1Nc1cccc(-n2nccn2)c1 [UNC10302682A, P505-15 (PRT06207 HCl)]
Response: 20.43%

Request: What about O=c1oc2ccccc2cc1-c1cn2cc(Cc3ccc(F)cc3)sc2n1 [UNC10302680A, iMDK] ?
Response: -10.98%

Request: What about CCCCNc1ncc2c(-c3ccc(CN4CCN(C)CC4)cc3)cn([C@H]3CC[C@H](O)CC3)c2n1 [UNC2025C, UNC2025] ?
Response: 48.7%

Request: What about c1cn2cc(-c3ccc4cn[nH]c4c3)nc(Nc3ccc(N4CCOCC4)cc3)c2n1 [UNC10302678A, Entospletinib (GS-9973)] ?
Response: -12.26%

* * *

- system: cloned human or rodent CNS receptors, channels, and transporters (PDSP panel) (Homo sapiens, UniProt P14416)
- Construct: expressed in transfected cells
- Sequence (P14416 whole entry): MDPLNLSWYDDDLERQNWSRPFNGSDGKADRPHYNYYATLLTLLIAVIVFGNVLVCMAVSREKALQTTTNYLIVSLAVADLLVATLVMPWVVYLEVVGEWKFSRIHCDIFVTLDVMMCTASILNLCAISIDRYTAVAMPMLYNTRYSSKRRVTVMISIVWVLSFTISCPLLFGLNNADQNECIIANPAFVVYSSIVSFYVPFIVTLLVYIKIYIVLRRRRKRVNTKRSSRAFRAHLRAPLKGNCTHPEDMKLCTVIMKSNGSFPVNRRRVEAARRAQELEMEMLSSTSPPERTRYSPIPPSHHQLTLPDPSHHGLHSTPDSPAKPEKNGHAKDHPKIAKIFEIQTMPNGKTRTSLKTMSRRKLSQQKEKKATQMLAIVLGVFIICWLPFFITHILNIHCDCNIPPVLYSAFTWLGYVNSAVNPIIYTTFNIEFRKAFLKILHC
- test.method.notes: PDSP GPCR panel primary binding assays at 10 μM
- measurement.context: Receptor D2; primary assay, 10 μM
- Method: GPCR panel: Screening against the receptors within the PDSP panel offers an assessment of off-target pharmacological activity at cloned human or rodent CNS receptors, channels, and transporters that could confound CNS-related phenotypes. A total of 46–47 primary binding assays were run in quadruplicate on these compounds at 10 μM, with follow-up secondary binding assays in 11-point dose-response in triplicate for select compounds versus select receptors. […]
Record form. Attribute: Inhibition 2. Fill in for each entry.
// return numeric value only (unit: %, not printed)

Request: Need Inhibition 2, item CCCCNc1ncc2c(-c3ccc(CN4CCN(C)CC4)cc3)cn([C@H]3CC[C@H](O)CC3)c2n1 [UNC2025C, UNC2025]
Response: -4.63

Request: What about c1cn2cc(-c3ccc4cn[nH]c4c3)nc(Nc3ccc(N4CCOCC4)cc3)c2n1 [UNC10302678A, Entospletinib (GS-9973)] ?
Response: 4.51

Request: What about Cl.NC(=O)c1cnc(N[C@@H]2CCCC[C@@H]2N)nc1Nc1cccc(-n2nccn2)c1 [UNC10302682A, P505-15 (PRT06207 HCl)] ?
Response: -4.34

Request: What about O=c1oc2ccccc2cc1-c1cn2cc(Cc3ccc(F)cc3)sc2n1 [UNC10302680A, iMDK] ?
Response: -7.84

* * *

- system: cloned human or rodent CNS receptors, channels, and transporters (PDSP panel) (Homo sapiens)
- Construct: expressed in transfected cells
- Sequence (P25100 1-572): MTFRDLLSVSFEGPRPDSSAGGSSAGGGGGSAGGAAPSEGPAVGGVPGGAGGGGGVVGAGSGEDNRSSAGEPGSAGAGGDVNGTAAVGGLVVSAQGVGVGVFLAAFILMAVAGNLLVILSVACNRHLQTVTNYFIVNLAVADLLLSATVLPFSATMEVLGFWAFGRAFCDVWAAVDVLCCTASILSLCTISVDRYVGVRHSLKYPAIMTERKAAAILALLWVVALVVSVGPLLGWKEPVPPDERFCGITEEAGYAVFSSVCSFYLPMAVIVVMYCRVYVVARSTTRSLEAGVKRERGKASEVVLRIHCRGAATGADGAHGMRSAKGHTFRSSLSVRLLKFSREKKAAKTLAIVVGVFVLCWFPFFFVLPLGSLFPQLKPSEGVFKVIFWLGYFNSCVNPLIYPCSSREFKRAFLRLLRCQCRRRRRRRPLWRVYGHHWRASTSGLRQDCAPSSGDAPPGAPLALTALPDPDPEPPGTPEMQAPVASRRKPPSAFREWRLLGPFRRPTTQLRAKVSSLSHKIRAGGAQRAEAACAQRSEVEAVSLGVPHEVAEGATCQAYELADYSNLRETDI
- test.method.notes: PDSP GPCR panel primary binding assays at 10 μM
- measurement.context: Alpha1D; primary assay, replicate 4
reported.property: Inhibition 4 (%)
// return numeric value only (unit: %, not printed)

Request: Need Inhibition 4, item O=C(NC1CC1)C(=O)C(Cc1ccccc1)NC(=O)[C@H]1CCC(=O)N1Cc1ccccc1 (stereo partly shown) [UNC10302676A, ABT-957 (Alicapistat)]
Response: 1.24

Request: What about CCC(=O)N1CCC(NC(=O)Nc2ccc(OC(F)(F)F)cc2)CC1 [UNC10302681A, TPPU] ?
Response: -11.97

Request: What about CNc1nc(C)nc(N[C@H]2CCC[C@@H](C(=O)NCc3ccc(C#N)cc3C(F)(F)F)C2)n1 [UNC10302679A, GSK2256294A] ?
Response: -9.98

Request: What about CC(=O)N1CCC(NC(=O)NC23CC4CC(CC(C4)C2)C3)CC1 [UNC10302683A, AR9281] ?
Response: -17.37

* * *

- system: cloned human or rodent CNS receptors, channels, and transporters (PDSP panel) (Homo sapiens, UniProt P28222)
- Construct: expressed in transfected cells
- Sequence (P28222 whole entry): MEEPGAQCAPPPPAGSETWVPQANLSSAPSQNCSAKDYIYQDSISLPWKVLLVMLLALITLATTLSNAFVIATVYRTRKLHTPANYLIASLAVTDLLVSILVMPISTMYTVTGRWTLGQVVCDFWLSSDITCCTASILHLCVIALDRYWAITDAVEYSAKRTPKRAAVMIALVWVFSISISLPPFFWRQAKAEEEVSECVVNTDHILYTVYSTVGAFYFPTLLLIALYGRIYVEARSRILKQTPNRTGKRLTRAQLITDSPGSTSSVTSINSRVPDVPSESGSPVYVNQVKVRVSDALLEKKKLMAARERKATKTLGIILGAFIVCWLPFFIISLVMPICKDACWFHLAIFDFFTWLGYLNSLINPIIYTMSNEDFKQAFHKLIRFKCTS
- test.method.notes: PDSP GPCR panel primary binding assays at 10 μM
- measurement.context: 5-HT1B; primary assay, replicate 4
Record form. Attribute: Inhibition 4. Fill in for each entry.
// return numeric value only (unit: %, not printed)

Request: Need Inhibition 4, item CNc1nc(C)nc(N[C@H]2CCC[C@@H](C(=O)NCc3ccc(C#N)cc3C(F)(F)F)C2)n1 [UNC10302679A, GSK2256294A]
Response: -2.95

Request: What about O=C(NC1CC1)C(=O)C(Cc1ccccc1)NC(=O)[C@H]1CCC(=O)N1Cc1ccccc1 (stereo partly shown) [UNC10302676A, ABT-957 (Alicapistat)] ?
Response: 7.18

Request: What about CCC(=O)N1CCC(NC(=O)Nc2ccc(OC(F)(F)F)cc2)CC1 [UNC10302681A, TPPU] ?
Response: -7.08

Request: What about CC(=O)N1CCC(NC(=O)NC23CC4CC(CC(C4)C2)C3)CC1 [UNC10302683A, AR9281] ?
Response: -11.4

* * *

Record form. Attribute: Inhibition 4. Fill in for each entry.
- system: cloned human or rodent CNS receptors, channels, and transporters (PDSP panel) (Homo sapiens)
- Construct: expressed in transfected cells
- Sequence (P46098 24-478): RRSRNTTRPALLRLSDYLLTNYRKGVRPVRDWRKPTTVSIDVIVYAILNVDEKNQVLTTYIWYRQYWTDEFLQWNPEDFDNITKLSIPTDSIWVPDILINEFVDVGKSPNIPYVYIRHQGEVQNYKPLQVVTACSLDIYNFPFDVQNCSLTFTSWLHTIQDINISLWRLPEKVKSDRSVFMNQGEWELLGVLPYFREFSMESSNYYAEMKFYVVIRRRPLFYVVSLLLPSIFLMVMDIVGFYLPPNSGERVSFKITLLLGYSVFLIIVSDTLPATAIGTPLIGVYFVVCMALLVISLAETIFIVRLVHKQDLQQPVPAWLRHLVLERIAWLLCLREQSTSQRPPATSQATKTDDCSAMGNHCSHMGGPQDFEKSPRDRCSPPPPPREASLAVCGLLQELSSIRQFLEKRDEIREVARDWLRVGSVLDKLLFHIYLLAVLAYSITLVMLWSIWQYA
- test.method.notes: PDSP GPCR panel primary binding assays at 10 μM
- measurement.context: Receptor 5-HT3; primary assay, 10 μM
// return numeric value only (unit: %, not printed)

Request: Need Inhibition 4, item Cl.NC(=O)c1cnc(N[C@@H]2CCCC[C@@H]2N)nc1Nc1cccc(-n2nccn2)c1 [UNC10302682A, P505-15 (PRT06207 HCl)]
Response: 75.45

Request: What about O=c1oc2ccccc2cc1-c1cn2cc(Cc3ccc(F)cc3)sc2n1 [UNC10302680A, iMDK] ?
Response: 14.61

Request: What about CCCCNc1ncc2c(-c3ccc(CN4CCN(C)CC4)cc3)cn([C@H]3CC[C@H](O)CC3)c2n1 [UNC2025C, UNC2025] ?
Response: 26.58

Request: What about c1cn2cc(-c3ccc4cn[nH]c4c3)nc(Nc3ccc(N4CCOCC4)cc3)c2n1 [UNC10302678A, Entospletinib (GS-9973)] ?
Response: 14.69

* * *

Record form. Attribute: Inhibition 3. Fill in for each entry.
- system: cloned human or rodent CNS receptors, channels, and transporters (PDSP panel) (Homo sapiens)
- Construct: expressed in transfected cells
- test.method.notes: PDSP GPCR panel primary binding assays at 10 μM
- measurement.context: Receptor 5-HT1B; primary assay, 10 μM
// return numeric value only (unit: %, not printed)

Request: Need Inhibition 3, item c1cn2cc(-c3ccc4cn[nH]c4c3)nc(Nc3ccc(N4CCOCC4)cc3)c2n1 [UNC10302678A, Entospletinib (GS-9973)]
Response: 2.36

Request: What about Cl.NC(=O)c1cnc(N[C@@H]2CCCC[C@@H]2N)nc1Nc1cccc(-n2nccn2)c1 [UNC10302682A, P505-15 (PRT06207 HCl)] ?
Response: 27.71

Request: What about CCCCNc1ncc2c(-c3ccc(CN4CCN(C)CC4)cc3)cn([C@H]3CC[C@H](O)CC3)c2n1 [UNC2025C, UNC2025] ?
Response: 10.42

Request: What about O=c1oc2ccccc2cc1-c1cn2cc(Cc3ccc(F)cc3)sc2n1 [UNC10302680A, iMDK] ?
Response: 0.98
